biological target: human alpha-synuclein monomer (human, UniProt P37840 1-140); experiment: SPR (Biacore 8K), IgG captured on anti-human Fc, aSyn monomer injected;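 further: aSyn injected as a dilution series, signal corrected against a reference cell holding an irrelevant IgG, Kd from one-to-one Langmuir kinetic fitting of kon and koff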
outcome.measure: pKd
The scale used: pKd is minus the common logarithm of the concentration in molar units.

{"binder": "H2_3_LC2 (antibody, V domains shown) VH: EVQLVESGGGLVQPGGSLRLSCAASGFTFSNAAMYWVRQAPGKGLELVSRIRTERNNYATYHADSVKGRFTISRDNSKNTLYLQMNSLRAEDTAVYYCTADMATGDYWGQGTLVTVSS VL: DIQMTQSPSSLSASVGDRVTITCKASQNINKNLDWYQQKPGKAPKPLIYSTNNLQTGVPSRFSGSGSGTDFTLTISSLQPEDFATYYCYQYKSAWTFGQGTKVEIK", "pKd": 8.32}
{"binder": "H3_4_LC2 (antibody, V domains shown) VH: EVQLVESGGGLVQPGGSLRLSCAASGFTFSNAAMYWVRQAPGKGLELVSRIRTKPNNYATYHADSVKGRFTISRDNSKNTLYLQMNSLRAEDTAVYYCSADFAKGDYWGQGTLVTVSS VL: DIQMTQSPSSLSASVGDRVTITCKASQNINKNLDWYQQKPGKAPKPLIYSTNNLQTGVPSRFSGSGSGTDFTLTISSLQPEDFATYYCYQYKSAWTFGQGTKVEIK", "pKd": 8.33}
{"binder": "H2_2_LC2 (antibody, V domains shown) VH: EVQLVESGGGLVQPGGSLRLSCAASGFTFSNAAMYWVRQAPGKGLELVSRIRTQRNNYATYHADSVKGRFTISRDNSKNTLYLQMNSLRAEDTAVYYCTADMATGDYWGQGTLVTVSS VL: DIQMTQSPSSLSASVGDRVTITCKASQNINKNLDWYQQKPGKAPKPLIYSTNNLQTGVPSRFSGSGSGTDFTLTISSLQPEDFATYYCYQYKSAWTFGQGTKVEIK", "pKd": 8.23}

// moving on: another record for pKd
*Q* What value of pKd has been recorded for this entry: HC2_L3_10 (antibody, V domains shown) VH: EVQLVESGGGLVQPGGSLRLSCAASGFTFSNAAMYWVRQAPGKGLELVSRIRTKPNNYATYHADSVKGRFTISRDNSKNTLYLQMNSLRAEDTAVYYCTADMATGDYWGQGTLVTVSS VL: DIQMTQSPSSLSASVGDRVTITCKASQNINKNLDWYQQKPGKAPKPLIYSTNNLQTGVPSRFSGSGSGTDFTLTISSLQPEDFATYYCYQYKLAWTFGQGTKVEIK
*A* 8.53
